# reported Aqueous Solubility; entries follow
Assay: Aqueous solubility, pH dependent
Format: physicochemical
Settings: pH 5
Quick reminder: number only, in µg/mL, skip the unit.

| molecule | unit | Aqueous Solubility |
| --- | --- | --- |
| CCCCCc1cc(OC(=O)C(NC(=O)CCC(=O)O)C(C)C)c2c(c1)OC(C)(C)C1CCC(C)=CC21 (stereo not drawn) [THC-Valinate-HS (15), THC-valinate-hemisuccinate] | µg/mL | 0.35 |

Record CCCCCc1cc(OC(=O)C(N)C(C)C)c2c(c1)OC(C)(C)C1CCC(C)=CC21 (stereo not drawn) [THC-Valinate (6), Δ^9-THC-valinate] . Reported Aqueous Solubility: 1.27

CCCCCc1cc(OC(=O)[C@@H](N)CCC(N)=O)c2c(c1)OC(C)(C)[C@@H]1CCC(C)=C[C@@H]21 [THC-Glutaminate (9), Δ^9-THC-glutaminate] has a reported Aqueous Solubility of 5.76

In plain terms, CCCCCc1cc(OC(=O)C(N)CC(C)C)c2c(c1)OC(C)(C)C1CCC(C)=CC21 (stereo not drawn) [THC-Leucinate (8), Δ^9-THC-leucinate] has a documented Aqueous Solubility of 0.23

Entry CCCCCc1cc(OC(=O)CNC)c2c(c1)OC(C)(C)[C@@H]1CCC(C)=C[C@@H]21 [THC-Sarcosinate (7), Δ^9-THC-sarcosinate] , Aqueous Solubility reported as 7.14

Entry CCCCCc1cc(OC(=O)[C@@H](N)C(C)C)c2c(c1)OC(C)(C)C1CCC(C)=CC21.O=C(O)CC(=O)O (stereo partly drawn) [THC-Valinate malonate] , Aqueous Solubility reported as 1.22
